# Tested on: SN12C renal
# Method: NCI-60 one-dose screen, 48 h (100 = growth as untreated, 0 = no growth, -100 = all killed)
# Assay Setup: 10 µM
Compounds without any hit were thinned out: in the full panel of roughly 83,000, 20% have a hit.
Result Type: growth (%)
Expressed in %, but write only the number.

- Cpd Smiles: "COc1ccc2nc(Cl)c(-c3cc(-c4ccccc4)nc(N)n3)cc2c1"
  Tested System: "SN12C renal"
  Quantity Unit: "%"
  growth: 10
- Cpd Smiles: "CC1(C)CC[C@]2(C(=O)NCCCNCCCCNCCCN)CC[C@]3(C)C(=CC[C@@H]4[C@@]5(C)Cc6c([nH]c7ccccc67)C(C)(C)[C@@H]5CC[C@]43C)[C@H]2C1"
  Tested System: "SN12C renal"
  Quantity Unit: "%"
  growth: 91.4
- Cpd Smiles: "CC(=O)c1ccc(Nc2nc(SCCC(C)C)nc(-c3ccc(F)cc3)c2C#N)cc1"
  Tested System: "SN12C renal"
  Quantity Unit: "%"
  growth: 22.7

Enquiry: Please give the measured growth for this compound: "Cc1noc2c(Cc3ccccc3)nn(CC(=O)N/N=C/c3ccc(F)cc3)c(=O)c12"
Return: 25.6

###

# System: NCI-H522 lung
# Method: NCI-60 one-dose screen, 48 h
# Assay Setup: 10 µM
About 83,000 compounds went through this panel and 20% of them were active in at least one assay; those are over-represented in the sample as a whole. Active and inactive are the calls of the source. How the source made its calls: active means growth percent below 10; inactive means the rest.
Output constraint: value belongs to y = active, n = inactive

- Cpd Smiles: "CSc1nc(-c2cccc(C)c2)c2cc(-c3ccccc3)n(C)c2n1"
  Category: "y"
- Cpd Smiles: "O=C1Nc2ccc(F)cc2/C1=C/c1cccc(OCc2ccccn2)c1"
  Category: "y"
- Cpd Smiles: "NS(=O)(=O)c1ccc(NC(=O)CSc2ccc(-c3ccccc3)nn2)c(Br)c1"
  Category: "n"
- Cpd Smiles: "COc1cnc2c(c1)C(=O)c1c-2n(CCCNC(C)C)c(=O)c2cc(OC)c(OC)cc12"
  Category: "n"
- Cpd Smiles: "O=C(c1ccccc1)n1ccc(-c2cc3cc(Br)ccc3oc2=O)n1"
  Category: "y"

Enquiry: Status in this test for "Brc1ccc(/C=C/c2n(Cc3ccc4ccccc4c3)c3ccccc3[n+]2Cc2ccc3ccccc3c2)cc1" ?
Return: y

Enquiry: And then "COc1ccc(C=CC(=O)c2ccc(-n3c(C)nc4c(cnn4-c4ccccc4)c3=O)cc2)cc1" , what is it?
Return: n

Enquiry: And then "Nc1nc2c(F)c(F)c(F)c(F)c2s1" , what is it?
Return: n

Enquiry: And then "O=C(Nc1nc2ccc([N+](=O)[O-])cc2s1)Nc1cc(Cl)ccc1I" , what is it?
Return: y

Enquiry: And then "Cc1ccc(/C=C/C(=O)c2ccc(NC(=O)CSc3nnc(-c4c[nH]c5ccccc45)n3-c3ccccc3)cc2)cc1" , what is it?
Return: n

###

# Test system: NCI-H522 lung
# Method: NCI-60 one-dose screen, 48 h
# Assay Setup: 10 µM
About 83,000 compounds went through this panel and 20% of them were active in at least one assay; those are over-represented in the sample as a whole. The source made the active and inactive calls. The calls were made as follows: active = growth percent below 10; inactive = the rest.
Output constraint: value belongs to active, inactive

- Compound: "O=C(/C=C/Nc1ccc(F)cc1F)c1ccc2c(c1)Nc1ccccc1S2"
  Category: "inactive"
- Compound: "COc1ccc2[nH]c(O)c(N=NC(=O)COc3ccc(NC(=O)Nc4ccc(Cl)cc4)cc3)c2c1"
  Category: "inactive"
- Compound: "N#Cc1c(-c2ccc(Cl)cc2)cc(-c2ccccc2)nc1OCc1ccccc1"
  Category: "inactive"
- Compound: "CC(C)C(=O)Nc1ccc(C(=O)NC(=S)Nc2ccc(C(=O)O)cc2)cc1"
  Category: "inactive"
- Compound: "COc1cccc(-c2ccnc(/N=C(\\N)Nc3ccc(S(=O)(=O)Nc4nc(C)cc(C)n4)cc3)n2)c1"
  Category: "inactive"

Enquiry: Status in this test for "O=c1oc2ccccc2cc1-c1csc(N=Nc2c(O)[nH]c3ccc(Br)cc23)n1" ?
Return: inactive

Enquiry: And then "O=C(CSc1ccc(-c2ccc(Cl)cc2)nn1)Nc1ccc(Cl)c(C(F)(F)F)c1" , what is it?
Return: inactive

Enquiry: And then "CCCCCc1ccc(S(=O)(=O)Nc2cc(-c3csc(N(C)C(C)=O)n3)ccc2N2CCN(C)CC2)cc1" , what is it?
Return: inactive

Enquiry: And then "Cc1noc2c(Cc3ccc([N+](=O)[O-])cc3)nn(CC(=O)N/N=C/c3ccc(Br)cc3)c(=O)c12" , what is it?
Return: inactive

Enquiry: And then "O=[N+]([O-])c1ccc(-c2nc(-c3ccccc3)c(-c3ccccc3)n2-c2ccc(S(=O)(=O)Nc3ncccn3)cc2)cc1" , what is it?
Return: inactive

Enquiry: And then "Cc1ccc(/C=C/C(=O)c2ccc(S(=O)(=O)NCCNc3nc(Nc4ccc(F)cc4)nc(N(C)C)n3)cc2)cc1" , what is it?
Return: inactive

Enquiry: And then "CN(C)c1ccc(/C=C/c2nc3ccccc3c(=O)n2CC(=O)Nc2ccc(Cl)cc2)cc1" , what is it?
Return: inactive

Enquiry: And then "CC(C)C1=C[C@@]23CC[C@@H]4[C@](C)(CCC[C@]4(C)C(=O)NCc4ccccc4)[C@H]2C[C@@H]1[C@H]1C(=O)OC(=O)[C@H]13" , what is it?
Return: inactive

Enquiry: And then "Cc1ccc(NCC(=O)Nn2c(COc3ccccc3)nc3ccccc3c2=O)cc1" , what is it?
Return: inactive

Enquiry: And then "S=c1nc(-c2ccccc2)cc(-c2cc3ccccc3nc2Cl)[nH]1" , what is it?
Return: inactive

Enquiry: And then "CCN1CCN(Cc2ccc(NC(=O)c3cccc(-n4cc(-c5ccc(NC(C)=O)nc5)nn4)c3)cc2C(F)(F)F)CC1" , what is it?
Return: inactive

Enquiry: And then "O=C(CNc1nc(-c2ccccc2)cs1)Nc1ccc(Cl)cc1" , what is it?
Return: active

Enquiry: And then CCOC(=O)C1=C(N)N(c2ccccc2)C2=C(C(=O)CC(C)(C)C2)C1c1ccc(Cl)cc1 (stereo not drawn) , what is it?
Return: inactive
